protocolDetails: Pharmacokinetic study of 9-cis RA in rat (plasma HPLC, one-compartment model)
conditionNotes: male, Sprague-Dawley, plasma, iv, 9 mg
reportedMetric: Cmax (µg/mL)
State the answer as a number, implicitly in µg/mL.

Name the reported Cmax value associated with the compound CC1=C(/C=C/C(C)=C\C=C\C(C)=C\C(=O)O)C(C)(C)CCC1 [9-cis RA, 9-cis retinoic acid]
120

---

protocolDetails: Pharmacokinetic study of 9-cis RA in rat (plasma HPLC, one-compartment model)
conditionNotes: male, Sprague-Dawley, plasma, po, 9 mg
reportedMetric: Cmax (ng/mL)
State the answer as a number, implicitly in ng/mL.

Name the reported Cmax value associated with the compound CC1=C(/C=C/C(C)=C\C=C\C(C)=C\C(=O)O)C(C)(C)CCC1 [9-cis RA, 9-cis retinoic acid]
3000

---

protocolDetails: Pharmacokinetic study of 9-cis RA in rat (plasma HPLC, one-compartment model)
conditionNotes: male, Sprague-Dawley, plasma, po, 9 mg, T1/2 (elimination half-life), oral administration, 9 mg 9-cis RA
reportedMetric: half-life (min)
State the answer as a number, implicitly in min.

Name the reported half-life value associated with the molecule CC1=C(/C=C/C(C)=C\C=C\C(C)=C\C(=O)O)C(C)(C)CCC1 [9-cis RA, 9-cis retinoic acid]
42.6
